biological target: Cytochrome P450 2D6 (Homo sapiens) (UniProt P10635); experiment: Cytochrome P450 family 2 subfamily D member 6 (CYP2D6) small molecule antagonists: luciferase biochemical (cell-free) qHTS assay (AID 1645840); settings: P450-Glo CYP2D6 enzyme, luciferin luminescence, 1 h; series mostly up to 57.4 µM; note: nearly all actives have a fitted effect of over 55% in size
Sequence (P10635 whole entry, looked up): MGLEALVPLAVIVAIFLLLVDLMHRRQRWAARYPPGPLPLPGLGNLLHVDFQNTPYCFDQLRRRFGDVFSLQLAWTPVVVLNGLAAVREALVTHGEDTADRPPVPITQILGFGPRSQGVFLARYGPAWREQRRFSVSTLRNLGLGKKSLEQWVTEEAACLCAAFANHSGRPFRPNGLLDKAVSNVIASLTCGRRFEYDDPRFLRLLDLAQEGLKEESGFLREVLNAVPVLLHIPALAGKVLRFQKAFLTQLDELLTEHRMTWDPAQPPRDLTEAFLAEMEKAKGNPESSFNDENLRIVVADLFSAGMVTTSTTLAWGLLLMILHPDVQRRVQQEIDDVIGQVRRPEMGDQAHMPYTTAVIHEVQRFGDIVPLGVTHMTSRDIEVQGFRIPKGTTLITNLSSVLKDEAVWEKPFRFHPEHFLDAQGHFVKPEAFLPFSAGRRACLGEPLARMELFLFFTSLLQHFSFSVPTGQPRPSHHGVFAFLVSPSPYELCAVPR
Records with an inconclusive call do not appear. Active and inactive are the calls of the source. Calls come from the whole dose curve; as a rule, active = well fitted inhibition curve with a large enough effect in the repeat runs; inconclusive = weak or mixed curves; inactive = flat fitted curve, though single readings scatter.
Could you please pick one outcome from this set? YES = active, NO = inactive

| compound | class-name |
| --- | --- |
| COc1cc(-c2cc(-c3ccc(N4CCNCC4)cc3)cnc2C)cc(OC)c1OC | NO |
| COc1cccc(CNC(=O)Nc2nc(-c3ccncc3)cs2)c1 | YES |
| C=CC(=O)Nc1cc(Nc2nccc(-c3cn(C)c4ccccc34)n2)c(OC)cc1N(C)CCN(C)C | YES |
| CCOc1ccc(-c2nc(-c3cccc4c3CCC4NCCO)no2)cc1OCC (centres undefined) | NO |
| C[C@@H](O[C@H]1OCCN(Cc2n[nH]nc2CN(C)C)[C@H]1c1ccc(F)cc1)c1cc(C(F)(F)F)cc(C(F)(F)F)c1 | YES |
| COc1ccc2c(c1)C[C@H](C(=O)Nc1ccc(-c3cn[nH]c3)cc1OCCN(C)C)CO2 | YES |

For Cn1cc(-c2cnc3ccc4ccc(CS(=O)(=O)NCc5ccccn5)cc4c(=O)c3c2)cn1 , what call appears in the results of this test?
YES

For Cc1nnsc1C(=O)Nc1ccc(-n2nc(C(F)(F)F)cc2C(F)(F)F)cc1 , what call appears in the results of this test?
YES

For Clc1ccccc1CNCC1CCC(CNCc2ccccc2Cl)CC1 (centres undefined) , what call appears in the results of this test?
YES

For COc1ccccc1-c1cc(Nc2cccc(CS(N)(=O)=O)c2)ncn1 , what call appears in the results of this test?
NO

For O=[N+]([O-])c1ccc(-[n+]2nc(-c3ccccc3)nn2-c2ccc(I)cc2)cc1 , what call appears in the results of this test?
YES

Attribution: PubChem BioAssay (NCATS)
